test system: lung cancer cell lines (e.g. NCI-H23, NCI-H1229); assay: Cell based assay, cell viability (CellTiter-Glo), lung cancer cell lines; details: Homo sapiens; NCI-H23 cells; 72 hours treatment; CellTiter-Glo; read-out: IC50, lung cancer cell line NCI-H23
measured_metric: IC50

>  <molecule>
CC(=O)c1c([S+]([O-])Cc2ccccc2)nc2c(Br)ccc(Cl)c2c1O (stereo not shown) [Compound 53]

>  <measured_metric>
IC50

>  <recorded_measurement>
> 2000 nM

$$$$
>  <molecule>
CC(=O)c1c([S+]([O-])Cc2cc(F)cc(S(F)(F)(F)(F)F)c2)[nH]c2c(Br)ccc(Cl)c2c1=O (stereo not shown) [Compound 76]

>  <measured_metric>
IC50

>  <recorded_measurement>
1220 nM

$$$$
>  <molecule>
CC(=O)c1c(SCc2cc(F)cc(F)c2)[nH]c2c(Br)ccc(Cl)c2c1=O [Compound 45]

>  <measured_metric>
IC50

>  <recorded_measurement>
> 2000 nM

$$$$

From here, focus on the item given below.
# input Can you share its IC50? I mean this molecule: CC(=O)c1c([S+]([O-])C(C)c2ccccc2)[nH]c2c(Br)ccc(Cl)c2c1=O (stereo not shown) [Compound 26]
# output > 2000 nM

----------
system: blood cancer cell lines (e.g. HL-60, Jurkat, Raji, Ramos, Daudi, MOLT-4); experiment: Cell based assay, cell viability (CellTiter-Glo), blood cancer cell lines; conditions: Homo sapiens, blood cancer cell line Daudi, 72 hours, read-out: IC50, Daudi
pIC50: −log10 of the molar value.
measured_metric: pIC50

Take a look at these entries with their results.
>  <molecule>
CC(=O)c1c([S+]([O-])Cc2cccnc2)[nH]c2c(Br)ccc(Cl)c2c1=O (stereo not drawn)

>  <pIC50>
5.95

$$$$
>  <molecule>
CC(=O)c1c([S+]([O-])C(C)C)[nH]c2c(Br)ccc(Cl)c2c1=O (stereo not drawn)

>  <pIC50>
< 5.70

$$$$
>  <molecule>
CC(=O)c1c(S(C)(=O)=O)n(S(=O)(=O)c2ccc(C(C)(C)C)cc2)c2c(Br)ccc(Cl)c2c1=O

>  <pIC50>
< 5.70

$$$$
>  <molecule>
CC(=O)c1c([S+]([O-])Cc2cc(Cl)ccc2Cl)[nH]c2c(Br)ccc(Cl)c2c1=O (stereo not drawn)

>  <pIC50>
5.74

$$$$
>  <molecule>
CCS(=O)(=O)n1c([S+](C)[O-])c(C(C)=O)c(=O)c2c(Cl)ccc(Br)c21 (stereo not drawn)

>  <pIC50>
< 5.70

$$$$
>  <molecule>
CC(=O)c1c(S(C)(=O)=O)n(C(=O)c2ccc(Br)cc2)c2c(Br)ccc(Cl)c2c1=O

>  <pIC50>
< 5.70

$$$$

# input Can you share its pIC50? I mean this molecule: CC(=O)c1c([S+]([O-])Cc2ccccc2)n(C(=O)c2ccc(Br)cc2)c2c(Br)ccc(Cl)c2c1=O (stereo not drawn)
# output < 5.70

# input Can you share its pIC50? I mean this molecule: CC(=O)c1c([S+]([O-])Cc2ccc(C(C)(C)C)cc2)[nH]c2c(Br)ccc(Cl)c2c1=O (stereo not drawn)
# output < 5.70

# input Can you share its pIC50? I mean this molecule: `CC(=O)c1c(SCc2cccc(I)c2)[nH]c2c(Br)ccc(Cl)c2c1=O`
# output < 5.70

----------
tested on: colorectal cancer cell lines (e.g. DLD-1, HCT 116, SW620, HCT-15, HCT-8, RKO); experiment: Cell based assay, cell viability (CellTiter-Glo), colorectal cancer cell lines; conditions: Homo sapiens, HCT 116, 72 hours treatment, read-out: IC50, colorectal cancer cell line HCT 116
pIC50: −log10 of the molar value.
measured_metric: pIC50

>  <compound>
CC(=O)c1c(SCc2cccc(C#N)c2)[nH]c2c(Br)ccc(Cl)c2c1=O

>  <pIC50>
< 5.70

$$$$
>  <compound>
CC(=O)c1c([S+]([O-])Cc2ccc(SC(F)(F)F)cc2)[nH]c2c(Br)ccc(Cl)c2c1=O (stereo not shown)

>  <pIC50>
5.92

$$$$
>  <compound>
CSc1c(C(C)=O)c(=O)c2c(Cl)ccc(Br)c2n1C

>  <pIC50>
< 5.70

$$$$

# input Can you share its pIC50? I mean this compound: CC(=O)c1c([S+]([O-])Cc2ccc(Cl)cc2)[nH]c2c(Br)ccc(Cl)c2c1=O (stereo not shown)
# output < 5.70

----------
test system: blood cancer cell lines (e.g. HL-60, Jurkat, Raji, Ramos, Daudi, MOLT-4); experiment: Cell based assay, cell viability (CellTiter-Glo), blood cancer cell lines; conditions: Homo sapiens, MV4-11, blood cancer cell line MV-4-11, 72 hours, read-out: IC50, MV-4-11
measured_metric: IC50

>  <molecule>
CC(=O)c1c([S+]([O-])Cc2ccc(S(F)(F)(F)(F)F)cc2)[nH]c2c(F)ccc(F)c2c1=O (stereo not drawn) [Compound 80]

>  <IC50>
> 2 µM

$$$$
>  <molecule>
CC(=O)c1c(S(=O)(=O)Cc2ccccc2)nc2c(Br)ccc(Cl)c2c1O [Compound 54]

>  <IC50>
> 2 µM

$$$$
>  <molecule>
CSc1c(C(C)=O)c(=O)c2c(Cl)ccc(Br)c2n1C [Compound 5]

>  <IC50>
> 2 µM

$$$$
>  <molecule>
CC(=O)c1c([S+]([O-])c2ccc(Br)cc2)[nH]c2c(Br)ccc(Cl)c2c1=O (stereo not drawn) [Compound 17]

>  <IC50>
> 2 µM

$$$$
>  <molecule>
CC(=O)c1c([S+]([O-])Cc2ccc(NS(C)(=O)=O)cc2)[nH]c2c(Br)ccc(Cl)c2c1=O (stereo not drawn) [Compound 103]

>  <IC50>
> 2 µM

$$$$
>  <molecule>
CC(=O)c1c([S+](C)[O-])[nH]c2c(Cl)ccc(Cl)c2c1=O (stereo not drawn) [Compound 6]

>  <IC50>
1.26 µM

$$$$
>  <molecule>
Cc1cc(C[S+]([O-])c2[nH]c3c(Cl)ccc(Cl)c3c(=O)c2C(=O)C(C)C)no1 (stereo not drawn) [Compound 86]

>  <IC50>
0.71 µM

$$$$
>  <molecule>
CC(=O)c1c(SCc2cc(F)cc(F)c2)[nH]c2c(Br)ccc(Cl)c2c1=O [Compound 45]

>  <IC50>
> 2 µM

$$$$

# input Can you share its IC50? I mean this molecule: CC(=O)c1c([S+]([O-])Cc2ccc(C(F)(F)F)o2)[nH]c2c(Br)ccc(Cl)c2c1=O (stereo not drawn) [Compound 72]
# output 1.12 µM

# input Can you share its IC50? I mean this molecule: CC(=O)c1c(SCc2ccc([N+](=O)[O-])cc2)[nH]c2c(Br)ccc(Cl)c2c1=O [Compound 32]
# output > 2 µM

# input Can you share its IC50? I mean this molecule: CSc1c(C(C)=O)c(=O)c2c(Cl)ccc(Br)c2n1S(=O)(=O)c1ccc([N+](=O)[O-])cc1 [Compound 38]
# output > 2 µM

# input Can you share its IC50? I mean this molecule: CC(=O)c1c([S+]([O-])Cc2ccc(OC(F)(F)F)cc2)[nH]c2c(Br)ccc(Cl)c2c1=O (stereo not drawn) [Compound 71]
# output > 2 µM

----------
tested on: bladder cancer cell lines; experiment: Cell based assay, cell viability (CellTiter-Glo), bladder cancer cell lines; details: Homo sapiens, T-24; T24 cells; 72 hours treatment; 0 to 2 μM; CellTiter-Glo; read-out: IC50, bladder cancer cell line T24
pIC50: −log10 of the molar value.
Measured pIC50 values are reported for all entries that follow.

>  <compound>
CC(=O)c1c([S+](C)[O-])n(Cc2ccc(F)c(Cl)c2)c2c(Br)ccc(Cl)c2c1=O (centres unmarked)

>  <tested_system>
bladder cancer cell lines

>  <measured_metric>
pIC50

>  <recorded_measurement>
< 5.70

$$$$

# input Can you share its pIC50? I mean this compound: Cc1cc(C[S+]([O-])c2[nH]c3c(Cl)ccc(Cl)c3c(=O)c2C(=O)c2ccccc2)no1 (centres unmarked)
# output < 5.70

# input Can you share its pIC50? I mean this compound: CC(=O)c1c([S+]([O-])Cc2nonc2C)[nH]c2c(Br)ccc(Cl)c2c1=O (centres unmarked)
# output < 5.70

# input Can you share its pIC50? I mean this compound: CC(=O)c1c([S+]([O-])Cc2ccc(Cl)nc2)[nH]c2c(Br)ccc(Cl)c2c1=O (centres unmarked)
# output 5.99

----------
system: colorectal cancer cell lines (e.g. DLD-1, HCT 116, SW620, HCT-15, HCT-8, RKO); assay: Cell based assay, cell viability (CellTiter-Glo), colorectal cancer cell lines; conditions: RKO, 72 hours treatment, read-out: IC50, colorectal cancer cell line RKO
pIC50: −log10 of the molar value.
measured_metric: pIC50

Take a look at these entries with their results.
>  <molecule>
CC(=O)c1c([S+]([O-])Cc2ccc(C(C)(C)C)cc2)[nH]c2c(Br)ccc(Cl)c2c1=O (stereo not shown)

>  <tested_system>
colorectal cancer cell lines (e.g. DLD-1, HCT 116, SW620, HCT-15, HCT-8, RKO)

>  <pIC50>
< 5.70

$$$$
>  <molecule>
CC(=O)c1c([S+]([O-])Cc2ccc(SC(F)(F)F)cc2)[nH]c2c(Cl)ccc(Cl)c2c1=O (stereo not shown)

>  <tested_system>
colorectal cancer cell lines (e.g. DLD-1, HCT 116, SW620, HCT-15, HCT-8, RKO)

>  <pIC50>
< 5.70

$$$$

# input Can you share its pIC50? I mean this molecule: `CSc1[nH]c2c(Br)ccc(Cl)c2c(=O)c1C(C)=O`
# output < 5.70

# input Can you share its pIC50? I mean this molecule: CC(=O)c1c([S+]([O-])Cc2ccc([N+](=O)[O-])cc2)[nH]c2c(Cl)ccc(Cl)c2c1=O (stereo not shown)
# output < 5.70

# input Can you share its pIC50? I mean this molecule: `CSc1c(C(C)=O)c(=O)c2c(Cl)ccc(Br)c2n1C(C)=O`
# output < 5.70

# input Can you share its pIC50? I mean this molecule: CC(=O)c1c([S+]([O-])Cc2ccc(C(=O)c3ccccc3)cc2)[nH]c2c(Br)ccc(Cl)c2c1=O (stereo not shown)
# output < 5.70

# input Can you share its pIC50? I mean this molecule: CC(=O)c1c([S+]([O-])Cc2ccc(S(F)(F)(F)(F)F)cc2)[nH]c2c(F)ccc(F)c2c1=O (stereo not shown)
# output < 5.70

# input Can you share its pIC50? I mean this molecule: `CC(=O)c1c(S(=O)(=O)Cc2ccccc2)[nH]c2c(Br)ccc(Cl)c2c1=O`
# output < 5.70

# input Can you share its pIC50? I mean this molecule: `COc1ccccc1Sc1[nH]c2c(Br)ccc(Cl)c2c(=O)c1C(C)=O`
# output < 5.70

# input Can you share its pIC50? I mean this molecule: `CC(=O)c1c(SCc2ccccc2)n(C(=O)c2ccc(Br)cc2)c2c(Br)ccc(Cl)c2c1=O`
# output < 5.70

# input Can you share its pIC50? I mean this molecule: COc1cccc(C[S+]([O-])c2[nH]c3c(Br)ccc(Cl)c3c(=O)c2C(C)=O)c1 (stereo not shown)
# output < 5.70
